B1: Hairpin Ribozyme (parent)
chain: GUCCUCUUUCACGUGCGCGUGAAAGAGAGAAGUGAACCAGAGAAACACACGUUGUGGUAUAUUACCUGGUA

Variants of: B1
experiment: self-cleavage, relative activity (ratio to wild type); higher = more cleavage; co-transcriptional
property measured: self-cleavage

Look at this variant and give its reported self-cleavage. G27A C46G 0.138

Sample G29U A44G — what was its self-cleavage? 0.142

Can you share its self-cleavage? I mean this variant: G15U C48U 0.149

Requested field: self-cleavage. Item: C6G U52A 0.433

Reported self-cleavage, variant U58C A71U : ____ 0.935

Can you share its self-cleavage? I mean this variant: C12A A45C 0.137

Which value of self-cleavage has been reported for U20C A22U in the records? 0.602

Consider the variant shown here: C10A A22G What is its recorded self-cleavage? 0.607

Query: self-cleavage; subject: A23C U55A 0.17

Query: self-cleavage; subject: A23G G56A 0.186

What self-cleavage value was documented for this variant, C4A C10A ? 0.16

State the recorded self-cleavage for this entry: U2C U9A 0.109

Can you look up the measured self-cleavage of C4A A49G for me? 0.157

Item A26G C50U has what recorded self-cleavage? 0.347

// self-cleavage lookup, key: A41U G51U 1.5

Returns the measured self-cleavage for the input variant. Input: U2C C46U 0.133

Requested field: self-cleavage. Item: G51A C66G 0.611

Please give the measured self-cleavage for this variant: G56C A71G 0.28

Return reported self-cleavage; argument: U62G U67G 0.127

Please look up its self-cleavage: A22G A31C 0.159

Value lookup for self-cleavage; key = C4U A26G 0.221

Consider the variant shown here: G13A U63C What is its recorded self-cleavage? 0.175

May I ask what self-cleavage has been recorded for U5G A43C ? 0.269

Which self-cleavage reading was recorded for the variant A26C A36C ? 0.488

Dear colleague, I am looking for the recorded self-cleavage of the following variant: C6G C12U 0.332

# input variant: A11U C66G ; wanted: its self-cleavage 0.0569

Look up self-cleavage for this variant: A23U G27C 0.148

Quick one: self-cleavage for G21A G29C ? 0.168

Find the recorded self-cleavage belonging to U20G G68U and report it. 0.297

Please give the measured self-cleavage for this variant: C38A G54C 0.164

GET /values?readout=self-cleavage&item= A45C C50G 0.211

What value of measured self-cleavage is listed for U14A U60A ? 0.987

Consider the variant A36G A43G and give its measured self-cleavage. 0.0267

Quick one: self-cleavage of G13U U58C ? 0.919

Which self-cleavage value belongs to C38G A61C ? 0.133

What does the data say about its self-cleavage? Entry: U7C A35C 0.612

Param item = G40A C50G ; retrieve measured self-cleavage. 0.243

# lookup: self-cleavage of U8A C12G 0.552

Sample G19U A22C — what was its self-cleavage? 0.625

Field request: self-cleavage | item: A41G A44U 0.185

Data request, read-out self-cleavage, for U9G A26C 0.418

Consider the variant shown here: G42C C46U What is its recorded self-cleavage? 0.12

Form field: reported self-cleavage of C16G U33G 0.12

Reported self-cleavage, variant A30C G57U : ____ 0.266

Entry G32A A59U has what self-cleavage? 0.167

What does the record list as self-cleavage for U5C A49U ? 0.143
